Measured pKd values are reported for all entries that follow.
molecular target: FAK FAT domain (biotinylated Avitag-FAT protein) (Homo sapiens); construct: biotinylated Avitag-FAT protein was diluted in running buffer; experiment: Surface plasmon resonance (SPR) binding to immobilised FAT protein; details: FAT protein immobilised, peptide 200 μM-0.01 μM, 1:1 binding model; read-out: SPR KD
pKd: −log10 of the molar value. Positions of bridges follow the written chain, without caps; N, C: chain ends. Non-standard residues stand in square brackets, D forms with d. Residues, ends and D or L forms follow the SMILES beside them. *: point of attachment. Myristoyl = CCCCCCCCCCCCCC(=O)*; R8 = C=CCCCCCC[C@@](C)(N)C(=O)O; S5 = C=CCCC[C@](C)(N)C(=O)O
observation_type: pKd

INSERT INTO assay_data (molecule, result) VALUES
  ('CCCCCCCCCCCCCC(=O)N[C@@H](CC(N)=O)C(=O)N[C@@H](CC(C)C)C(=O)N[C@]1(C)CCCCCCC=CCCC[C@@](C)(C(=O)N[C@@H](CCC(=O)O)C(=O)N[C@@H](CCC(=O)O)C(=O)N[C@@H](CC(N)=O)C(N)=O)NC(=O)[C@H](CC(C)C)NC(=O)[C@H](CC(C)C)NC(=O)[C@H](CCCNC(=N)N)NC(=O)[C@H](CC(=O)O)NC(=O)[C@H](CCC(=O)O)NC(=O)[C@H](CCC(=O)O)NC1=O [Peptide 2020, Myristoyl-NLR8EEDRLLS5EEN-NH2] (Myristoyl-NL[R8]EEDRLL[S5]EEN-NH2; staple 3-10)', '< 3.70'),
  ('CC(=O)N[C@@H](CC(N)=O)C(=O)N[C@@H](CC(C)C)C(=O)N[C@@H](CO)C(=O)N[C@]1(C)CCCCCCC=CCCC[C@@](C)(C(=O)N[C@@H](CC(C)C)C(=O)N[C@@H](CC(N)=O)C(N)=O)NC(=O)[C@H](CC(C)C)NC(=O)[C@H](CC(C)C)NC(=O)[C@H](CC(C)C)NC(=O)[C@H](CCCNC(=N)N)NC(=O)[C@H](CC(=O)O)NC(=O)[C@H](CC(C)C)NC1=O [Peptide 1905, Ac-NLSR8LDRLLLS5LN-NH2] (Ac-NLS[R8]LDRLLL[S5]LN-NH2; staple 4-11)', '< 3.70'),
  ('CC(C)C[C@@H]1NC(=O)[C@H](CCCNC(=N)N)NC(=O)[C@H](CC(=O)O)NC(=O)[C@H](CC(C)C)NC(=O)[C@](C)(NC(=O)[C@H](CO)NC(=O)[C@H](CC(C)C)NC(=O)[C@@H](N)CC(N)=O)CCCCCCC=CCCC[C@@](C)(C(=O)N[C@@H](CC(C)C)C(=O)N[C@@H](CC(N)=O)C(N)=O)NC(=O)[C@H](CC(N)=O)NC(=O)[C@H](CC(C)C)NC1=O [Peptide 1906, H-NLSR8LDRLLNS5LN-NH2] (H-NLS[R8]LDRLLN[S5]LN-NH2; staple 4-11)', '< 3.70');
